Form field: NF-KB reporter activation, curve fit Bottom (one value per entry).
# Tgt: human 4-1BB on cells (human, UniProt Q07011 24-255)
# Sequence (Q07011 24-255): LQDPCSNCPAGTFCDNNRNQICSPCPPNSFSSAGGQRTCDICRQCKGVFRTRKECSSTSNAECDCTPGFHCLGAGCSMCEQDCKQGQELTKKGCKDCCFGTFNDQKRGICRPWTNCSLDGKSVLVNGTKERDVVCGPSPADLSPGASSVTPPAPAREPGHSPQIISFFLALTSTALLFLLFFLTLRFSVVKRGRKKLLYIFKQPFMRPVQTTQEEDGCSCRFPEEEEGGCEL
# Test name: cell-based or functional assay
Respond numerically; units are RLU and should not be typed.

Binder: huF1.1.G2.2.4 (antibody, human IgG2, kappa, V domains shown, also called huF1.1.2.4) VH: QVQLVQSGAEVKKPGASVKVSCKASGYTFTFYTMHWLRQAPGQGLEWIGYINPSSGYTNYNQKFTDRATLTADTSTSTAYMELSSLRSEDTAVYYCARSDGSSSKWYFDVWGQGTTVTVSS VL: EIVLTQSPDFQSATPKEKVTITCRASSSVSYIHWYQQKPGSSPKAWISATSNLASGVPSRFSGSGSGTSYTLTINRVEAEDAATYYCQQWSSNPFTFGQGTKLEIKR
Numeric readout: 838
//
Binder: cAb 137QL.F1.1.G2 (antibody, human IgG2, V domains shown, Chimeric antibody; also called Chimeric F1.1; cAb F1.1.G2) VH: QVQLQQSGAELARPGASVKMSCKASGYTFTFYTMHWLKQRPGQGLEWIGYINPSSGYTNYNQKFTDKATLTADKSSSTAYMQLSSLTSEDSAVYYCARSDGSSSKWYFDVWGTGTTVTVSS VL: QIVLSQSPTILSASPGEKVTMTCRASSSVSYIHWYQQKPGSSPKAWISATSNLASGVPARFSGSGSGTSYSLTISRVEAEDAATYYCQQWSSNPFTFGSGTKLEIK
Numeric readout: 894

Please turn your attention to the following entry.
Q: I would be grateful if you could share the reported NF-KB reporter activation, curve fit Bottom for huF1.1.G2.4.4 (antibody, human IgG2, kappa, V domains shown, also called huF1.1.4.4) VH: QVQLVQSGAEVKKPGASVKMSCKASGYTFTFYTMHWLKQAPGQGLEWIGYINPSSGYTNYNQKFTDRATLTADKSTSTAYMELSSLRSEDTAVYYCARSDGSSSKWYFDVWGQGTTVTVSS VL: EIVLTQSPDFQSATPKEKVTITCRASSSVSYIHWYQQKPGSSPKAWISATSNLASGVPSRFSGSGSGTSYTLTINRVEAEDAATYYCQQWSSNPFTFGQGTKLEIKR .
A: 666
